target: Poly [ADP-ribose] polymerase 1 (Homo sapiens)
Sequence (P09874 whole entry): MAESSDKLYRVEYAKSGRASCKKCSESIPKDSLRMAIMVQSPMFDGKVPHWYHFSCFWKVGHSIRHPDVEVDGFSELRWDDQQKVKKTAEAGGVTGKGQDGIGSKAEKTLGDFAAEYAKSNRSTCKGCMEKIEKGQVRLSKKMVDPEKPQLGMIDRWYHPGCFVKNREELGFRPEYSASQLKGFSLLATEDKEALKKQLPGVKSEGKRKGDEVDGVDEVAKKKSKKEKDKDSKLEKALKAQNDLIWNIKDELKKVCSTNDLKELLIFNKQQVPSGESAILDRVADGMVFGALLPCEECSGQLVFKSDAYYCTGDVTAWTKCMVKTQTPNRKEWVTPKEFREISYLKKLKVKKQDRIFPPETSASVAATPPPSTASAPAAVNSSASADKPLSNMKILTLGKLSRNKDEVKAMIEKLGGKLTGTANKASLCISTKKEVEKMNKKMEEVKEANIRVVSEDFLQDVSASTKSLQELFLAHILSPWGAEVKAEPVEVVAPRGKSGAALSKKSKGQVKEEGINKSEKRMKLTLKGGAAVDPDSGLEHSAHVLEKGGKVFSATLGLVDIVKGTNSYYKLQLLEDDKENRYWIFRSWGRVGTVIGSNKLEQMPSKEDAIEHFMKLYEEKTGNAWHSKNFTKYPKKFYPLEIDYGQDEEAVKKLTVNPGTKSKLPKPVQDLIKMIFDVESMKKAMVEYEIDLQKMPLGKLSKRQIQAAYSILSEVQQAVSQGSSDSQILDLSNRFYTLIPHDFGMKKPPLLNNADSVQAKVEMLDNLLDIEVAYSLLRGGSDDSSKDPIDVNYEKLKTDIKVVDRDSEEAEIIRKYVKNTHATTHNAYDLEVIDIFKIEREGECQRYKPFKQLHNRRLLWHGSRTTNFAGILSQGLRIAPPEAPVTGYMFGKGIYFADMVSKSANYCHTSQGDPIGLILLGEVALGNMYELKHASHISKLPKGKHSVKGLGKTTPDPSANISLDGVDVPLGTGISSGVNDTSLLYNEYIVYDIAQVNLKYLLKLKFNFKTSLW
VALUE KIND: pKd
Kindly note that pKd refers to -log10 of the concentration in mol/L and answer with the value alone.

Param item: O=C(c1cc(Cc2n[nH]c(=O)c3ccccc23)ccc1F)N1CCCNCC1 ; param system: Poly [ADP-ribose] polymerase 1 (Homo sapiens); output pKd: 7.72
